- TESTED_TARGET: Human immunodeficiency virus type 1 protease (Human immunodeficiency virus 1)
- TEST_SUMMARY: Anti-HIV-1 activity against mutant HIV-1 in MT-4 cells (mutation selected with compound 1)
- Type: functional, cell-based
- CONDITIONS_USED: MT4
Measured log10 of ED50 by item
Log10 applied to ED50; unit prior to transform: nM.

Example cases with answers are listed next.
COMPOUND	log10 of ED50
CNC(=O)[C@@H](NC(=O)[C@H](OCc1ccc(F)cc1)[C@H](O)[C@@H](O)[C@@H](OCc1ccc(F)cc1)C(=O)N[C@H](C(=O)NC)C(C)C)C(C)C	3.89
CC(C)(C)NC(=O)[C@@H]1C[C@@H]2CCCC[C@@H]2CN1C[C@@H](O)[C@H](Cc1ccccc1)NC(=O)[C@H](CC(N)=O)NC(=O)c1ccc2ccccc2n1	1.00
O=C(NC1c2ccccc2C[C@H]1O)[C@H](OCc1cccc(F)c1)[C@H](O)[C@@H](O)[C@@H](OCc1cccc(F)c1)C(=O)N[C@H]1c2ccccc2C[C@H]1O (stereo partly specified)	2.26
CNC(=O)[C@@H](NC(=O)[C@H](OCc1ccccc1F)[C@H](O)[C@@H](O)[C@@H](OCc1ccccc1F)C(=O)N[C@H](C(=O)NC)C(C)C)C(C)C	3.97
CNC(=O)[C@@H](NC(=O)[C@H](OCc1ccc(F)c(F)c1)[C@H](O)[C@@H](O)[C@@H](OCc1ccc(F)c(F)c1)C(=O)N[C@H](C(=O)NC)C(C)C)C(C)C	3.45

Consider the additional compound presented here.
Q: Hi! What's the reported log10 of ED50 for `CNC(=O)[C@@H](NC(=O)[C@H](OCc1cccc(F)c1F)[C@H](O)[C@@H](O)[C@@H](OCc1cccc(F)c1F)C(=O)N[C@H](C(=O)NC)C(C)C)C(C)C` on Human immunodeficiency virus type 1 protease (Human immunodeficiency virus 1)?
Ans: 3.19

* * *

These records show pKi for UniProtKB Q72874.
In textbook form, pKi equals minus log to base ten of the concentration in mol/L.

Example cases with answers are listed next.
COMPOUND	pKi
O=C(NC1c2ccccc2C[C@H]1O)[C@H](OCc1c(F)cccc1F)[C@H](O)[C@@H](O)[C@@H](OCc1c(F)cccc1F)C(=O)N[C@H]1c2ccccc2C[C@H]1O (stereo partly drawn)	8.79
O=C(NC1c2ccccc2C[C@H]1O)[C@H](OCc1ccccc1F)[C@H](O)[C@@H](O)[C@@H](OCc1ccccc1F)C(=O)N[C@H]1c2ccccc2C[C@H]1O (stereo partly drawn)	8.49
O=C(NC1c2ccccc2C[C@H]1O)[C@H](OCc1ccc(F)cc1F)[C@H](O)[C@@H](O)[C@@H](OCc1ccc(F)cc1F)C(=O)N[C@H]1c2ccccc2C[C@H]1O (stereo partly drawn)	8.78

Q: # get_value(readout='pKi', item= `CNC(=O)[C@@H](NC(=O)[C@H](OCc1cccc(F)c1F)[C@H](O)[C@@H](O)[C@@H](OCc1cccc(F)c1F)C(=O)N[C@H](C(=O)NC)C(C)C)C(C)C` )
Ans: 8.89

Q: # get_value(readout='pKi', item= `CNC(=O)[C@@H](NC(=O)[C@H](OCc1c(F)cccc1F)[C@H](O)[C@@H](O)[C@@H](OCc1c(F)cccc1F)C(=O)N[C@H](C(=O)NC)C(C)C)C(C)C` )
Ans: 8.76
